test system: LNCaP; test: Cytotoxicity against human LNCAP cells after 72 hrs by Alamar Blue assay; assay type: functional, cell-based
pIC50: −log10 of the molar value.
Label f if pIC50 falls below 5; label t in every other case.

Reference set (3 entries):
Q: Please tell me: is the molecule O=C(O)c1ccccc1-n1ccc2c([nH]c3ccccc32)c1=O at or over 5 in terms of pIC50?
A: f

Q: Please tell me: is the molecule O=C(O)c1ccccc1-[n+]1ccc2c(c1)[nH]c1ccccc12.[Cl-] [RETICULATATE] at or over 5 in terms of pIC50?
A: f

Q: Please tell me: is the molecule O=C1c2ccccc2-[n+]2ccc3c([nH]c4ccccc43)c21 at or over 5 in terms of pIC50?
A: t

Others:
Q: Please tell me: is the molecule O=C1c2ccccc2-n2c1c1[nH]c3ccccc3c1cc2=O at or over 5 in terms of pIC50?
A: f

Q: Please tell me: is the molecule COc1cccc2c1C(=O)c1c(O)c3c(c(O)c1C2=O)C[C@@](O)(C(=O)CO)C[C@@H]3O[C@H]1C[C@H](N)[C@H](O)[C@H](C)O1 at or over 5 in terms of pIC50?
A: t
